Let's look at some molecules and their measured composite z-score.
Test: small-molecule microarray binders of probe aCHRDL2, primary screen, biochemical, biotinylated probe, 635/667 nm fluorescence (AID 1100)
Conditions: higher = more signal
quantity.measured: composite z-score

>  <molecule>
C=C(C)[C@@H]1CC=C(C(O)C2C=CC3C(=O)N(c4ccccc4)C(=O)C3N2Nc2ccccc2)CC1 (stereo not given in full)

>  <quantity.measured>
composite z-score

>  <value.measured>
0.906

$$$$
>  <molecule>
COCCOC(=O)N1C(=O)[C@@]2(c3cc(C#CCC(C(=O)OC)C(=O)OC)ccc31)[C@H](c1ccccc1OCCO)N1[C@H](c3ccccc3)[C@H](c3ccccc3)OC(=O)[C@H]1[C@@H]2C(=O)N1CCN(c2ncccn2)CC1

>  <quantity.measured>
composite z-score

>  <value.measured>
0.237

$$$$
>  <molecule>
CCOC(=O)C[C@H]1[C@H](OC(=O)c2ccc(C(=O)c3ccccc3)cc2)[C@@H](NC(=O)c2ccccc2)c2cc(OCCCO)ccc2N1C(=O)c1ccc2ccccc2n1

>  <quantity.measured>
composite z-score

>  <value.measured>
-0.267

$$$$
>  <molecule>
COC(=O)[C@@]1(Cc2ccccc2)[C@H]2c3cc(C(=O)N4CCCC4)n(Cc4ccc(S(C)(=O)=O)cc4)c3C[C@H]2CN1C(=O)c1ccccc1

>  <quantity.measured>
composite z-score

>  <value.measured>
1.03

$$$$
>  <molecule>
COCCOC(=O)N1C(=O)[C@@]2(c3cc(C#CC4(O)CCCCCC4)ccc31)[C@H](c1ccccc1OCCO)N1[C@H](c3ccccc3)[C@H](c3ccccc3)OC(=O)[C@H]1[C@@H]2C(=O)N1CCN(c2ncccn2)CC1

>  <quantity.measured>
composite z-score

>  <value.measured>
-0.0635

$$$$

###

Experiment: small-molecule binders of probe aNOTCH3, primary screen, biochemical, small-molecule microarray, 635/667 nm fluorescence (AID 1120);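 also: probe is a biotin-tagged antibody raised against NOTCH3 rather than NOTCH3 protein; score merges spot fluorescence near 667 nm with spot signal to noise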
Conditions: higher = more signal
Let's look at some compounds and their measured composite z-score.

>  <compound>
O=C(OCc1ccccc1)C1=CCC2c3[nH]c4ccccc4c3C(=O)C1N2S(=O)(=O)c1ccccc1[N+](=O)[O-] (centres undefined)

>  <composite z-score>
0.6

$$$$
>  <compound>
CC(C)C(CO)N1C(=O)[C@@H]2C3C(=O)OCCC/C=C\[C@H]3OC23C=CCN(CCN2CCOCC2)C(=O)[C@@H]13 (some centres undefined)

>  <composite z-score>
-0.21

$$$$
>  <compound>
COc1ccc([Si](C)(C)[C@@H]2[C@@H](CC(=O)N3CCC[C@H]3CO)O[C@]3(C(=O)N(c4ccccc4)c4ccccc43)[C@H]2C)cc1

>  <composite z-score>
-0.0377

$$$$
>  <compound>
[N-]=[N+]=NCc1ccccc1[C@@H]1OC(c2ccc(OCCCO)cc2)=N[C@]1(Cc1ccccc1)C(N)=O

>  <composite z-score>
0.526

$$$$

###

Let's look at some compounds and their measured composite z-score.
Molecular target: Torsin-1A-interacting protein 2 (Homo sapiens)
Experiment: LULL1 binders on small-molecule microarray, primary screen, cell lysate, human LULL1 lysate, 635/667 nm fluorescence (AID 1092);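 also: probe is lysate of COS7 cells overexpressing human LULL1; score merges per-feature 667 nm fluorescence with signal-to-noise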
Settings: hLULL1 lysate binding, 635 nm fluorescence, higher = more signal
quantity.measured: composite z-score

>  <compound>
CCOC(=O)C1=CC[C@@H](c2ccccc2)N(S(=O)(=O)c2ccc(C)cc2)[C@H]1c1ccccc1C

>  <value.measured>
1.97

$$$$
>  <compound>
COCCOC(=O)N1C(=O)[C@@]2(c3cc(C#Cc4ccc(OC)cc4)ccc31)[C@H](c1ccccc1OCCO)N1[C@H](c3ccccc3)[C@H](c3ccccc3)OC(=O)[C@H]1[C@@H]2C(=O)NC[C@H](O)c1ccccc1

>  <value.measured>
2.86

$$$$
>  <compound>
O=C1N(Cc2ccccc2)c2ccccc2[C@@H]2OC(c3ccc(OCCCO)cc3)=N[C@]12CCS(=O)(=O)c1ccccc1

>  <value.measured>
2.98

$$$$
>  <compound>
CCC[C@@H]1C[C@@]1(CCC)[C@@H](NC(=O)c1ccccc1)c1cccc(Cl)c1

>  <value.measured>
3.23

$$$$
>  <compound>
[N-]=[N+]=Nc1ccccc1[C@H]1OC(c2ccc(OCCCO)cc2)=N[C@@]1(CCS(=O)(=O)c1ccccc1)C(N)=O

>  <value.measured>
2.56

$$$$
>  <compound>
O=C1C[C@@](C(=O)NCC(F)(F)F)(c2ccc([N+](=O)[O-])cc2)[C@@H](c2ccc(CO)cc2I)N1C1CCCCC1

>  <value.measured>
2.52

$$$$
>  <compound>
CN1C(=O)C2C=CC(C(O)C#Cc3ccccc3)N(N3CCCCC3)C2C1=O (configuration not stated)

>  <value.measured>
0.58

$$$$
